tested on: MDA-MB-468; experiment: Cell growth inhibition assay (CellTiter-Glo), breast cancer cell line MDA-MB-468; assay type: cell-based; conditions: Homo sapiens; MDA-MB-468 cells, 96 hours
EXPERIMENTAL READOUT: IC50 (µM)

Sample answers from the record:
Cc1cc(Cl)ccc1Oc1cc(NC(=O)c2cc3cc4c(cc3s2)OCCC4S(C)(=O)=O)cc(Cl)n1 (stereo not shown) : 0.0051
CS(=O)(=O)C1CCOc2cc3sc(C(=O)Nc4cc(Cl)nc(Oc5ccc(Cl)c(Cl)c5)c4)cc3cc21 (stereo not shown) : 0.0024

P = CS(=O)(=O)C1CCOc2cc3sc(C(=O)Nc4cc(Cl)nc(Oc5cc(F)cc(Cl)c5)c4)cc3cc21 (stereo not shown)
Q = CS(=O)(=O)C1CCCOc2cc3sc(C(=O)Nc4cc(Cl)nc(Oc5ccc(Cl)cc5)c4)cc3cc21 (stereo not shown)
Of P and Q , whose reported IC50 is numerically smaller? Which one? Tell me its label.
P
(P: 0.0022 µM, Q: 0.023 µM)
